The following compounds are listed with their measured % Inhibition values.
# Tested on: P. falciparum stage V gametocytes
# Parameters: BacTiter-Glo ATP luminescence viability of purified stage V gametocytes in 384-well plates, per cent inhibition versus DMSO
# Assay Setup: 48 h, 5 µM; inhibitor
Hit rate of the full screen: of about 13,000 compounds, about 3,200 (25%) showed an effect of 50% or more. Some of the results follow.
Could you give the number and then its unit, please?

Ask: Recorded % Inhibition of Cc1cc(OC(C)C(=O)N2CCc3ccccc32)ccc1Cl (centres unmarked) , please.
Reply: 25.65%

Ask: Would you kindly share the measured % Inhibition for `Cc1nc(-c2nc(N3CCOCC3)ncc2-c2ccsc2)sc1C` ?
Reply: 0.6256%

Ask: Find the recorded % Inhibition belonging to `CC[C@H]1CN2CC[C@@H]1C[C@@H]2[C@@H](O)c1cc(-c2ccc(F)cc2)nc2ccc(OC)cc12` and report it.
Reply: 96.07%

Ask: What value of % Inhibition has been reported for the following compound? `Cc1nc(-c2nc(NCCc3c(C)noc3C)ncc2-c2ccsc2)sc1C`
Reply: 20.64%

Ask: For `CC[C@H]1CN2CC[C@H]1C[C@H]2[C@H](O)c1cc(-c2ccc(OC(F)(F)F)cc2)nc2ccc(OC)cc12` , what is its reported % Inhibition?
Reply: 67.8%

Ask: Look up % Inhibition for this compound: `Cc1nc(-c2nc(NCc3ccccn3)ncc2-c2ccsc2)sc1C`
Reply: 31.08%

Ask: Need % Inhibition, item `COCCN(CCOC)c1ncc(-c2ccsc2)c(-c2nc(C)c(C)s2)n1`
Reply: 81.41%

Ask: Which value of % Inhibition has been reported for `Fc1ccc2[nH]c3c(NCCN4CCCCC4)ncnc3c2c1` in the records?
Reply: -41.7%
